- Tested On: Nuclear receptor coactivator 1 (Homo sapiens)
- Assay Notes: inhibition of GAL4-SRC1 reporter transcription – cell-based, HEK293, GAL4-SRC1 luciferase, powder samples, selectivity assay for SRC3 inhibitor project, late-stage follow-up (AID 651786)
- Condition Details: luminescence
Active and inactive are the calls of the source.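 The calls were made as follows: active = IC50 at or below 10 µM; inactive = IC50 above 10 µM.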
Quantity: IC50

Past entries and their recorded results:
CN1C(=O)C2(C(C#N)=C(N)N(c3cc(Cl)cc(Cl)c3)C3=C2C(=O)CC(C)(C)C3)c2ccccc21 (stereo not drawn) = > 35.9 µM (inactive)
OCCN1CCN(C(=S)c2ccc(-c3ccccc3)cc2)CC1 = 3.01 µM
CC(C)(C)c1ccc(-c2noc(CCC(=O)Nc3cccnc3)n2)cc1 = > 35.9 µM (inactive)
O=C(COC(=O)c1ccc[nH]c1=O)Nc1ccc(N2CCCCC2)cc1 = > 35.9 µM (inactive)
CCCNC(=O)c1nnsc1S(=O)(=O)c1ccc(Cl)cc1 = 6.16 µM
CN1C(=O)C2(C(C#N)=C(N)N(c3cc(Cl)cc(Cl)c3)C3=C2C(=O)CCC3)c2ccccc21 (stereo not drawn) = > 35.9 µM (inactive)

# input for lookup
Any idea what its IC50 is? The molecule is O=C(Nc1ccccc1Oc1ccccc1)c1cc([N+](=O)[O-])ccc1Cl
6.87 µM

Where these numbers come from: PubChem BioAssay AID651786
